// data source = paper PMC3875237

target: ACE N-domain (wild-type) (Homo sapiens); construct: Assays were performed on wild-type N-domain, C-domain and N-domain S2 mutants; made in house; host or cells: CHO (Chinese-hamster ovary) cells; test: continuous fluorogenic (Abz)-FRK(Dnp)P-OH ACE inhibition assay, wild-type N-domain; assay type: biochemical
Sequence (P12821 40-624 limits assumed): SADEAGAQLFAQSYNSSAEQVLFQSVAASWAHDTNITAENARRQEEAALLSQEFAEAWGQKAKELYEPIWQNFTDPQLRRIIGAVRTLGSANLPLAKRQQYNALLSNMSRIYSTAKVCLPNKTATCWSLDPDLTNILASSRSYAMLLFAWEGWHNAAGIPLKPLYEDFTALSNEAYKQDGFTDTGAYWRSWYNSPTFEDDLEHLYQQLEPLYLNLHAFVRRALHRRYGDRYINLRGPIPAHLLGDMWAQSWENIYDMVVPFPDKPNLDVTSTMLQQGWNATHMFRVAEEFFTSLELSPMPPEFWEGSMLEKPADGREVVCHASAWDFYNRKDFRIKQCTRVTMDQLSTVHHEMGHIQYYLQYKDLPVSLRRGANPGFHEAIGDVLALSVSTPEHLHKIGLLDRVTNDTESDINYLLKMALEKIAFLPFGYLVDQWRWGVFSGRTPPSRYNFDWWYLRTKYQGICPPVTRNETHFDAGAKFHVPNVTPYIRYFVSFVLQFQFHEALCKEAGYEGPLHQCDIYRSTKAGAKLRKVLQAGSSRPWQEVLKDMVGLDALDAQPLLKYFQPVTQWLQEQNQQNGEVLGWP
Quantity Kind: Ki (nM)
Answers are plain numbers, in nM.

### Prompt Sample C[C@H](CP(=O)(O)[C@H](Cc1ccccc1)NC(=O)[C@@H](N)Cc1nnn[nH]1)C(=O)N[C@H](C)C(N)=O [33RE] — what was its Ki?
### Response 11.2

---

Target: ACE N-domain double mutant YR/FE (Homo sapiens, UniProt P12821, R410E/Y398F)
Construct: N-domain S2 mutants Y369F, R381E and YR/FE
Sequence (P12821 40-624 Y398F/R410E): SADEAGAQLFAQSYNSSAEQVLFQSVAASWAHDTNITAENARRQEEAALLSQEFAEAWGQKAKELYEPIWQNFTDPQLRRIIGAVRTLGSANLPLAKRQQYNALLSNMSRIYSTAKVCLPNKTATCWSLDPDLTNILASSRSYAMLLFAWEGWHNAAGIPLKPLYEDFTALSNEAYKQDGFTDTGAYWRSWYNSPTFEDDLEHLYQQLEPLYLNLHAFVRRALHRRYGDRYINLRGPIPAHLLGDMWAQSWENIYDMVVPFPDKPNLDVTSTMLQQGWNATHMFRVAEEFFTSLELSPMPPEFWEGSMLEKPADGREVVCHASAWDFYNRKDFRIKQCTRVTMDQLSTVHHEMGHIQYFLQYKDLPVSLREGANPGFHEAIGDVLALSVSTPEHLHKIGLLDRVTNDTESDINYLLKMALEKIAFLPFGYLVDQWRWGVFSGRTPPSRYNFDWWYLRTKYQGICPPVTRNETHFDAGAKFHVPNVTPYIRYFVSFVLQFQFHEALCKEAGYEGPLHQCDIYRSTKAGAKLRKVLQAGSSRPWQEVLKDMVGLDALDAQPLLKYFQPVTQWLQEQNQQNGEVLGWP
Experiment: continuous fluorogenic (Abz)-FRK(Dnp)P-OH ACE inhibition assay, N-domain S2 double mutant YR/FE
Details: N-domain double mutant YR/FE; means±S.E.M.
Protocol: Parent molecule RXP407 and compound 33RE were dissolved in sterile distilled water to yield stock solutions of 10 mM and subsequently serially diluted in assay buffer (50 mM Hepes, pH 6.8, 200 mM NaCl and 10 μM ZnSO4). Assays were performed on wild-type N-domain, C-domain and N-domain S2 mutants Y369F, R381E and YR/FE as described previously. […] Residual enzyme activity was monitored continuously at λex=320 nm and λem=420 nm using a fluorescence spectrophotometer (Cary Eclipse, Varian). […]
Quantity Kind: pKi
Give bare numbers, as −log10 of the molar value.

### Prompt Please provide the recorded pKi for C[C@H](CP(=O)(O)[C@H](Cc1ccccc1)NC(=O)[C@@H](N)Cc1nnn[nH]1)C(=O)N[C@H](C)C(N)=O [33RE] , tested on ACE N-domain double mutant YR/FE (Homo sapiens, UniProt P12821, R410E/Y398F).
### Response 5.55
